Molecular target: human EP2 receptor (hEP2) (Homo sapiens)
Construct: plasma membrane fraction
Sequence (P43116 whole entry): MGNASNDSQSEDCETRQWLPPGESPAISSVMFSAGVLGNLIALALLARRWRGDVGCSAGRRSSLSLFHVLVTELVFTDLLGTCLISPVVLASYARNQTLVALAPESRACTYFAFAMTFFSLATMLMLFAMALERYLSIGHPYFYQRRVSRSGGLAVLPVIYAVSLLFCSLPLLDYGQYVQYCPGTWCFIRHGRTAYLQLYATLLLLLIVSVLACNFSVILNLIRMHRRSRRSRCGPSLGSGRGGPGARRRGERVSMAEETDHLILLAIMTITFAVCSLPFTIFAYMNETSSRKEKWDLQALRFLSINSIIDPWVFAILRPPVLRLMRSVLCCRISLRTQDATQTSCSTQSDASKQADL
Assay: Radioligand binding competition vs [3H]PGE2, human recombinant EP2 receptor
Details: [3H]PGE2 competition, plasma membranes of HEK-293 stable transfectants, 60 min 25° C.
EXPERIMENTAL_READOUT: IC50

>  <COMPOUND>
O=C(O)CSCCCS[C@H]1C(=O)C[C@@H](O)[C@@H]1/C=C/C(O)Cc1csc2ccccc12 (single isomer, unassigned) [Example 25L]

>  <REPORTED_RESULT>
2.2 µM

$$$$
>  <COMPOUND>
O=C(O)CSCCCS[C@H]1C(=O)C[C@@H](O)[C@@H]1/C=C/[C@@H](O)CCc1cc2ccccc2s1 [Example 14H]

>  <REPORTED_RESULT>
> 10 µM

$$$$

# evaluate next
Tell me its IC50 given O=C(O)CSCCCS[C@H]1C(=O)C[C@@H](O)[C@@H]1/C=C/C(O)CCc1ccc2ccccc2c1 (single isomer, unassigned) [Example 10H] as the entry. > 10 µM

The reported measurements were obtained from patent US7872045B2.
